# Tested on: Meloidogyne incognita
# method.notes: Fall nematicidal field test on squash
# condition.parameters: 2 kg ai/ha, squash
Provide the reported TW28 top weight at 28 days after treatment of each item.

**Query** Please indicate TW28 top weight at 28 days after treatment recorded for "c1ccc(-c2cnc(-c3cccs3)o2)cc1"
**Result** 97.5

**Query** Please indicate TW28 top weight at 28 days after treatment recorded for "Clc1ccc(-c2nnc(-c3cccs3)o2)cc1"
**Result** 150.8

**Query** Please indicate TW28 top weight at 28 days after treatment recorded for "Brc1ccc(-c2cnc(-c3cccs3)o2)cc1"
**Result** 250.8

**Query** Please indicate TW28 top weight at 28 days after treatment recorded for "CNC(=O)O/N=C(\SC)C(=O)N(C)C"
**Result** 136.8

* * *

# Tested on: root knot nematode
# method.notes: Pre-plant incorporated (PPI) greenhouse test of root knot nematode on cucumber plants
# Format: in vivo
# condition.parameters: fourteen day pre-plant incorporated, 8 ka/ha; test a; read-out: percent control (galling reduction), 8 ka/ha rate
Provide the reported pest or weed control at 8000 g/ha of each item.
API: value field is a number in %; no unit string.

**Query** Please indicate pest or weed control at 8000 g/ha recorded for c1ccc(-c2noc(-c3cccs3)n2)cc1 [compound 1822]
**Result** 100

**Query** Please indicate pest or weed control at 8000 g/ha recorded for Cc1cc(Br)ccc1-c1noc(-c2ccco2)n1 [compound 5825]
**Result** 96

**Query** Please indicate pest or weed control at 8000 g/ha recorded for Brc1ccc(-c2noc(-c3ccco3)n2)cc1 [compound 5467]
**Result** 100

**Query** Please indicate pest or weed control at 8000 g/ha recorded for Clc1ccc(-c2noc(-c3ccco3)n2)cc1 [compound 5523]
**Result** 99

**Query** Please indicate pest or weed control at 8000 g/ha recorded for Fc1ccc(-c2noc(-c3cccs3)n2)cc1 [compound 5479]
**Result** 100

**Query** Please indicate pest or weed control at 8000 g/ha recorded for Clc1ccc(-c2noc(-c3cccs3)n2)cc1 [compound 5527]
**Result** 96

**Query** Please indicate pest or weed control at 8000 g/ha recorded for Cc1cc(Cl)ccc1-c1noc(-c2ccco2)n1 [compound 5823]
**Result** 100

* * *

# Tested on: Meloidogyne incognita
# method.notes: Summer field evaluation of pre-plant incorporated compounds on squash
# Type: in vivo
# condition.parameters: 4 kg/ha
measured.property: control of M. incognita by PPI application

| substance.smiles | endpoint.value |
| --- | --- |
| Cc1cc(Cl)ccc1-c1nsc(-c2ccco2)n1 | excellent control |
| Clc1ccc(-c2nsc(-c3ccco3)n2)c(Cl)c1 | significant control |
| Cc1cc(Cl)ccc1-c1noc(-c2ccco2)n1 | excellent control |
| Clc1ccc(-c2noc(-c3ccco3)n2)cc1 | significant control |

* * *

# Tested on: root knot nematode
# method.notes: Pre-plant incorporated (PPI) greenhouse test of root knot nematode on cucumber plants
# Assay type: in vivo
# condition.parameters: 336 h, fourteen day pre-plant incorporated, 4 kg/ha; test a; read-out: percent control (galling reduction), 4 kg/ha rate
Provide the reported pest or weed control at 4000 g/ha of each item.
API: value field is a number in %; no unit string.

**Query** Please indicate pest or weed control at 4000 g/ha recorded for "Clc1ccc(-c2noc(-c3cccs3)n2)cc1"
**Result** 90

**Query** Please indicate pest or weed control at 4000 g/ha recorded for "Fc1ccc(-c2noc(-c3cccs3)n2)cc1"
**Result** 89

**Query** Please indicate pest or weed control at 4000 g/ha recorded for "Brc1ccc(-c2noc(-c3ccco3)n2)cc1"
**Result** 76

**Query** Please indicate pest or weed control at 4000 g/ha recorded for "Clc1ccc(-c2noc(-c3ccco3)n2)cc1"
**Result** 87

**Query** Please indicate pest or weed control at 4000 g/ha recorded for "Cc1cc(Cl)ccc1-c1noc(-c2ccco2)n1"
**Result** 98

**Query** Please indicate pest or weed control at 4000 g/ha recorded for "Cc1cc(Br)ccc1-c1noc(-c2ccco2)n1"
**Result** 98

**Query** Please indicate pest or weed control at 4000 g/ha recorded for "c1ccc(-c2noc(-c3cccs3)n2)cc1"
**Result** 97
